Test method notes: Clearance in human microsomes at 0.5 uM
Format: ADME, Microsome
Test readout: CL (mL/min/g)
Note: unit mL/min/g is implicit; provide only the numeric part.

compound CC(C)(C)c1cc(C(=O)N2CCN(c3ncccc3C(F)(F)F)CC2)n(Cc2ccccc2)n1 , CL observed: 12.7

compound CN(C)CCNC(=O)c1cc2c(-c3ccc(Cl)cc3)nn(C)c2s1 , CL observed: 0.3

compound Cc1cc(C(=O)NC2CCN(CC3(c4ccc(Cl)cc4)CCC3)CC2)on1 , CL observed: 18.8

---

Please respond with reported CL for every item in the list.
Test method notes: Clearance in mouse microsomes at 0.5 uM
Format: ADME, Microsome
Note: unit mL/min/g is implicit; provide only the numeric part.

compound Cc1cc(C(=O)NC2CCN(CC3(c4ccc(Cl)cc4)CCC3)CC2)on1 , CL observed: 5.6

compound CN(C)CCNC(=O)c1cc2c(-c3ccc(Cl)cc3)nn(C)c2s1 , CL observed: 4

---

Test system: Plasmodium falciparum
Test method notes: Antimalarial activity against Plasmodium falciparum 3D7 A infected in red blood cells assessed as inhibition of [3H]hypoxanthine incorporation after 24 hrs by scintillation counting
Format: functional, organism-based
Test readout: IC50 (nM)
Note: unit nM is implicit; provide only the numeric part.

compound Cc1cc(C(=O)NC2CCN(CC3(c4ccc(Cl)cc4)CCC3)CC2)on1 , IC50 observed: 80

compound COc1cc2c(cc1C(F)(F)F)N(C(=O)Nc1cc(OC(F)(F)F)cc(-c3cccnc3)c1)CC2 , IC50 observed: 80

compound CN(C)CCNC(=O)c1cc2c(-c3ccc(Cl)cc3)nn(C)c2s1 , IC50 observed: 950

compound O=C(Nc1cc(C(F)(F)F)ccc1-n1cncn1)C1(c2ccccc2)CC1 , IC50 observed: 30

compound CC(C)(C)c1cc(C(=O)N2CCN(c3ncccc3C(F)(F)F)CC2)n(Cc2ccccc2)n1 , IC50 observed: 100

---

Test method notes: Clearance in mouse microsomes at 0.5 uM
Type: ADME, Microsome
Test readout: CL

compound CC(C)(C)c1cc(C(=O)N2CCN(c3ncccc3C(F)(F)F)CC2)n(Cc2ccccc2)n1 , CL observed: > 30 mL/min/g

compound O=C(Nc1cc(C(F)(F)F)ccc1-n1cncn1)C1(c2ccccc2)CC1 , CL observed: < 0.8 mL/min/g

compound COc1cc2c(cc1C(F)(F)F)N(C(=O)Nc1cc(OC(F)(F)F)cc(-c3cccnc3)c1)CC2 , CL observed: < 0.3 mL/min/g
